Biological target: T1, human CD3e/g (human, UniProt P07766 23-126; P09693 23-116)
T1 construct: Bought soluble protein; also called hCD3e/g; human CD3e/g (Acro CDD-C52W4)
T1 sequence (P07766 23-126, chain 1 of 2): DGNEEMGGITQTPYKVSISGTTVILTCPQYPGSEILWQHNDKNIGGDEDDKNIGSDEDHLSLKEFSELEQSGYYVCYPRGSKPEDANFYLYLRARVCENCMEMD
T1 sequence (P09693 23-116, chain 2 of 2): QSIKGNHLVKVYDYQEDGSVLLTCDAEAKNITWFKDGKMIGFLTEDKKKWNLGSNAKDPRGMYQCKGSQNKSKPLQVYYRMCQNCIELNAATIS
Experiment: SPR (Carterra LSA), mAb on chip
observation-type: pKd
Quick note: pKd means taking -log10 of the concentration in moles per liter.

// pKd value for mAb 156 (antibody, V domains shown, VH and VL only) VH: EVQLVESGGGLVKTGGSLRLSCVASGFSFKKAWMNWVRQAPGKGLEWVGRIKRNTDGGTADYAAPVKGRFTLSRDDSKKTLFLQMNSLKTEDTAVYYCTTLDSSSYYVGYYYMDVWGKGTTVTVSS VL: DIQMTQSPSSVSASVGDRVIITCRASQDINNWLAWYQQKAGKAPKLLIYTASSLQSGVPSRFSGSGSGTDFTLTIGSLQPEDFATYYCQQAHSLPITFGQGTRLEIK : 8.15

// pKd value for mAb 276 (antibody, V domains shown, VH and VL only) VH: EVQLVESGGGLVQPGGSLRLSCAASGIPFSTYSMNWVRQAPGKGLEWVSYISGSSRTIYYADSVKGRFTISRDNAKKLLFLQMNSLRDEDTAVYYCAREGDYYDSSGWAYWGQGTLVTVSS VL: DIQMTQSPSSLSASVGDRVTITCRASQNIYKYLNWYEQKPGRAPKLLIYTTSNLQSGVPSRFSGSGSGTAFTLIISSLQPEDFATYYCQQSYGSPYTFGQGTKLEIK : 8.02

// pKd value for mAb 210 (antibody, V domains shown, VH and VL only) VH: QVQLVESGGGVVQPGRSLRLSCAASGFTFSGYGMHWVRQAPGKGLEWLAIIYYNGNNRKYADSVKGRFTISRDNSKNTVSLQMNSLRVEDTAMYYCTRGDGYNWFVTWGQGTLVTVSS VL: EIVMTQSPATLSVSPGERAALSCRASQSVTSNLAWYHQKPGQAPRLLIYGASTRATGIPVRFSGSGSGTEFTLTISSLQSEDFAVYYCQQYNNWPLTFGGGTKVENK : 7.23

// pKd value for mAb 195 (antibody, V domains shown, VH and VL only) VH: QEQLVESGGGVVQSGRSLRLSCVASGFKFSGYGMHWVRQAPGKGLEWVAIIYYDGKNKYYADSVKGRFTISRDNSKNTLYLQMNSLRAEDTAVYYCTRGAGYNWFDSWGQGTLVTVSS VL: EIVMTQSPATLSVSPGERATLSCRASQSVRNNLAWYQQKPGQAPRLLIYGVSTRATAFPARFSGSGSGTEFTLTISSLQSEDFAVYYCQQYNNWPLTFGGGTKVEIK : 8.15

// pKd value for mAb 83 (antibody, V domains shown, VH and VL only) VH: QVQLVESGGGVVQPGRSLRLSCAASGFTFSGYGMHWVRQAPGKGLDWVAIIYYNGNNKYYADSVKGRFTISRDNSKNTLYLQMNSLRAEDTAVYYCARGGGYNWFDPWGQGTLVIVSS VL: DIQMTQSPSSLSASVGDRVTITCRPSQIIINYLNWYQQKPGKAPKLLIYAASSLQSGVPSRFSGSGSGTDFTLTISSLQPEDFATYYCQQSYSTPFTFGRGTRLEIK : 7.27

// pKd value for mAb 52 (antibody, V domains shown, VH and VL only) VH: QVQLVQSGAEVKKPGASVKVSCKASGYTFTSHDINWVRQATGQGLEWMGWLNPNSGKTGYAQKFQGRVTMARDTSMYTADMELSSLRFEDTAVYYCARVGHYDMWPGFFSFDYWGQGTLVTVSS VL: DIQMTQSPSSLSASVGDRIIITCRASQDIRNDLGWYQQKPGKAPKRLIYAASSLQSGVPSRFSGSRSGTEFTLTISSLHPEDFATYYCLQHRSYPYTFGQGTNLEIK : 6.95

// pKd value for mAb 166 (antibody, V domains shown, VH and VL only) VH: EVQLVESGGGLVKTGGSLRLSCVASGFSFKKAWMNWVRQAPGRGLEWVGRIKRNTDGGTTDYAAPVKGRFTLSRDDSKNMLYLQMNSLKTEDTAVYYCTTLDSSSLYVGYYYMDVWGKGTTVTVSS VL: DIQMTQSPSSVSASVGDRVTITCRASQDINNWLAWYQQKPGKAPKLLIYTASSLQSGVPSRFSGSGSGTDFTLTISSLQPEDFATYFCQQAHSLPITFGQGTRLEIT : 7.90

// pKd value for mAb 123 (antibody, V domains shown, VH and VL only) VH: DVQLVESGGGTVKTGGSLRLSCVASGFSFKKAWMNWVRQAPGKGLEWVGRIKKNSDDGTADYAAPVKGRFTISRDDSKRTLFLQMNSLQTEDTAVYYCTTLDSSSWFVGYYYMDVWGKGTTVTVSS VL: DIQMTQSPSSVSASVGDRVIITCRASQDINNWLAWYQQKPGKAPKLLIYTASSLQSGVPSRFSGSGSVSDFTLTIDSLQPEDFATYYCQQAHSLPITFGQGTRLEIK : 7.78

// pKd value for mAb 206 (antibody, V domains shown, VH and VL only) VH: QVQLVESGGGVVQPGRSLRLSCAASGFTFSGYGMHWVRQAPGKGLEWVAIIYYNGNNRKYADSVKGRFTISRDNSKNTVSLQMNSLRVEDTAIYYCTRGDGYNWFVTWGQGTLVTVSS VL: EIVMTQSPATLSVSPGERATLSCRASQSVSSNLAWYHQKPGQAPRLLIYGASTRATGIPVRFSGSGSGTEFTLTISSLQSEDFAVYYCQQYNNWPLTFGGGTKVEIK : 7.48

// pKd value for mAb 163 (antibody, V domains shown, VH and VL only) VH: EVQLVESGGGLVKTGGSLRLSCVASGFSFKKAWMNWVRQVPGKGLEWVGRIKRNTDGGTADYAAPVKGRFTLSRDDSKKTLFLQMNSLKTEDTAVYYCTTLDSSSYYVGYYYMDVWGKGTTVTVSS VL: DIQMTQSPSSVSASVGDRVIITCRASQDINNWLAWYQQKPGKAPKLLIYTASSLQSGVPSRFSGSGSGTDFTLTIGSLQPEDFATYYCQQAHSLPITFGQGTRLEIK : 8.06

Where these numbers come from: patent US20230295310A1
